testedSystem: HLA-B0801 (human)
testDescription: competition binding assay with labelled reference peptide
testContext: remark: other sources report otherwise
Listed below: Ki values for each entry.
Please give the number followed by its unit.

input: Provide only the value of recorded Ki for QPRGRRQPI (modifications not checked) […]
output: 3 nM

input: Provide only the value of recorded Ki for LPRRGPRL (modifications not checked)
output: 6 nM
